TARGET OR TEST SYSTEM: Lipoprotein lipase (Homo sapiens, UniProt P06858)
Sequence (P06858 whole entry): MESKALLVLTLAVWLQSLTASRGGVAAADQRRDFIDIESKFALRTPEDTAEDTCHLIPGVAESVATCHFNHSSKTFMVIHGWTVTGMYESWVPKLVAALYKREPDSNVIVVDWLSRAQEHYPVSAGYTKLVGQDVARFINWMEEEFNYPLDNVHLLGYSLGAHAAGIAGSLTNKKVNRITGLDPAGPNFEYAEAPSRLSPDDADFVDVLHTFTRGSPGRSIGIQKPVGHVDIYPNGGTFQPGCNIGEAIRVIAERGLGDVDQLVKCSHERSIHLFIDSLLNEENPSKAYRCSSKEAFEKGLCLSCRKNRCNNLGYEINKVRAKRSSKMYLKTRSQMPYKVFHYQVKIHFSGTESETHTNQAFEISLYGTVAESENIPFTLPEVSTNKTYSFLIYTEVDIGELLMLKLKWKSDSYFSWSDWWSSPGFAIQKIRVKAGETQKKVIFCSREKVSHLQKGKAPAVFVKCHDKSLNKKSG
ASSAY SUMMARY: Inhibition of recombinant human LPL expressed in African green monkey COS7 cells using DGGR/DMPG vesicles as substrate pretreated for 10 mins followed by substrate addition and measured for 5 mins

MOLECULE SMILES: Cn1ccc(C(=O)NCCCc2ccc(Cl)c(Cl)c2)c(O)c1=O
IC50: > 90 µM
--
MOLECULE SMILES: CN1CC(C(=O)NCCCc2ccc(Cl)c(Cl)c2)=C(O)C1=O
IC50: > 37 µM
